System: EAC-bearing mice
assayText: Hepatotoxicity and kidney toxicity parameters of EAC-bearing mice
Format: in vivo, mouse
conditions: EAC-bearing mice, treatment at IC50 dosage, mean±SD n=6
measuredMetric: ALP (IU/l)
Give bare numbers, in IU/l.

Here is how some compounds turned out for ALP.
COc1cc(O)c2c(=O)c3c(OC)ccc(OC)c3oc2c1 [XC, 1-hydroxy-3,5,8-trimethoxyxanthone]
106
COc1cc(O)c2c(=O)c3c(O)ccc(OC)c3oc2c1 [XB, 1,8-dihydroxy-3,5-dimethoxyxanthone]
160
COc1cc(O)c2c(=O)c3c(O)ccc(O)c3oc2c1 [XD, 1,5,8-trihydroxy-3-methoxyxanthone]
57.2

Could you now consider this next compound?
Observed ALP on EAC-bearing mice for COc1cc(O)c2c(=O)c3c(OC)c(OC)ccc3oc2c1 [XA, 1-hydroxy-3,7,8-trimethoxyxanthone] , please. 103
